- Test System: T1, CAPRIN-1 protein expressed on the membrane surface of human cancer cells (human, UniProt Q14444 2-709)
- T1 sequence (looked up): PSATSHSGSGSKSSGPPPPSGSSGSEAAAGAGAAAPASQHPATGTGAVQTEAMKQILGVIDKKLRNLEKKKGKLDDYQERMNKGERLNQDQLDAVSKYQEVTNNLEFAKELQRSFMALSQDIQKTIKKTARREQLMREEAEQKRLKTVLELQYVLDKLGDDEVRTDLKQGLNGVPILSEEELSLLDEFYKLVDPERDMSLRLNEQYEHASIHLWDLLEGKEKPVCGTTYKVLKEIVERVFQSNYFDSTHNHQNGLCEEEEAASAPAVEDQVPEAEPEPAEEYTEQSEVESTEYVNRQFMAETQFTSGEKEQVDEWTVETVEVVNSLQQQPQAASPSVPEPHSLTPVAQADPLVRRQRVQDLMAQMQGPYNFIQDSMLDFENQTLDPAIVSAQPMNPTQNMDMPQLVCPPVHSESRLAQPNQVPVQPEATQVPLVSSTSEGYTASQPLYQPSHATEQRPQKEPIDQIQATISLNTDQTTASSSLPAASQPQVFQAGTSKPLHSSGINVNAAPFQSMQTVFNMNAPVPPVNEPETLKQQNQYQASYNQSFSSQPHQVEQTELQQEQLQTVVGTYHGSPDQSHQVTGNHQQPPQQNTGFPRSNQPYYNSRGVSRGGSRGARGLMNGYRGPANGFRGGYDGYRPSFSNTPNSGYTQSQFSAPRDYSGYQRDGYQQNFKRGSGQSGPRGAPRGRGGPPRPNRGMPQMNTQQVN
- Test Description: cell-based or functional assay
Measurement Kind: ADCC cytotoxic activity (51Cr release) on TGBC14TKB

Binder	Experimental Value
human-rabbit chimeric anti-CAPRIN-1 antibody (antibody, V domains shown) VH: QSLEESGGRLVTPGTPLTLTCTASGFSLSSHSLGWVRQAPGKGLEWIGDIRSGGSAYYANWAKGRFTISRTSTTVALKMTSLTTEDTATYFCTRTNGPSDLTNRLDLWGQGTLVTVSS VL: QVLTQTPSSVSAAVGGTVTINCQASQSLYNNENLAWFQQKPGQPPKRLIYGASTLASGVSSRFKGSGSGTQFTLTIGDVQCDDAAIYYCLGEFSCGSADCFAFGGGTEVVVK	≥ 25%
humanized antibody #7 (antibody, V domains shown) VH: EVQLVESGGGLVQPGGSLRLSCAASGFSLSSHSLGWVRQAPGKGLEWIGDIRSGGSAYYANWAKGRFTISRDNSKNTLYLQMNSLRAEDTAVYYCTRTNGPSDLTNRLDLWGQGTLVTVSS VL: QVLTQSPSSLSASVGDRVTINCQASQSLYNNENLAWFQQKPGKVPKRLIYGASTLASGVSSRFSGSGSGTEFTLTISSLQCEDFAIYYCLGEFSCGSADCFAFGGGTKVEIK	≥ 35%
humanized antibody #6 (antibody, V domains shown) VH: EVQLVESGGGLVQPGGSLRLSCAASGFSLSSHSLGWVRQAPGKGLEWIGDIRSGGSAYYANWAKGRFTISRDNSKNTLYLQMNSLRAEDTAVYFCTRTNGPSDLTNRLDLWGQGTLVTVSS VL: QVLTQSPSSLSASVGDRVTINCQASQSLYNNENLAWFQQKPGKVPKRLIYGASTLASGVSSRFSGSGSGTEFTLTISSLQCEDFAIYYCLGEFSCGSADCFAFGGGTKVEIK	≥ 35%
humanized antibody #5 (antibody, V domains shown) VH: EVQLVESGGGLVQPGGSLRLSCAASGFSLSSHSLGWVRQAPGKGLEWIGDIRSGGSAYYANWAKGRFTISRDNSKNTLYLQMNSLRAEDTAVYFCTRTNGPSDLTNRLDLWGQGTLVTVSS VL: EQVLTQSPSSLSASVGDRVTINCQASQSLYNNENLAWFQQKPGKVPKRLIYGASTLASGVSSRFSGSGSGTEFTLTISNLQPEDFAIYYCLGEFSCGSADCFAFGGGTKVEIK	≥ 30%
humanized antibody #2 (antibody, V domains shown) VH: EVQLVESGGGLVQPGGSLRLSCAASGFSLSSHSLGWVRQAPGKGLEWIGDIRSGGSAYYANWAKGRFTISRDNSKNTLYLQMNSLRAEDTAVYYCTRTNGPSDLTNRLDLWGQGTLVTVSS VL: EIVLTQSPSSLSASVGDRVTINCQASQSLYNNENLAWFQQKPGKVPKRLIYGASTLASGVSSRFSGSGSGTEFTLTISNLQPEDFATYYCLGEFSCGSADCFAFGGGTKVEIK	≥ 30%
